Test: qHTS of small molecules that selectively kill Giardia lamblia: Hit Validation. Note: potency is the fitted concentration of half-maximal effect.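 Note: viability measured as ATP content by luminescence so killing lowers signal; trophozoites exposed to compounds for 48 h anaerobically at 37 °C; nearly all actives have a fitted effect of over 65% in size.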
Experimental Context: Giardia lamblia trophozoite viability, dose-response; series mostly up to 38.3 µM
In all, about 1,300 compounds went through this assay and about 1,000 (77%) were called active. Inconclusive results (about 7%) are left out. The set was probably picked from earlier hits. The list shows a part of the results.
Observed Property: Potency

Which Potency value belongs to O=C(/C=C/c1cccc([N+](=O)[O-])c1)c1ccco1 ?
7290 nM (active)

Which Potency value belongs to Cc1cc([N+](=O)[O-])nn1Cc1ccc(F)cc1 ?
2900 nM (active)

Which Potency value belongs to Cc1cc(C(=O)COc2cccnc2[N+](=O)[O-])c(C)n1-c1ccccc1 ?
365 nM (active)

Which Potency value belongs to O=C(Cc1ccc(Cl)cc1)Nc1ncc([N+](=O)[O-])s1 ?
818 nM (active)

Which Potency value belongs to COC(=O)c1ccc(Nc2ccc3nonc3c2[N+](=O)[O-])cc1 ?
2050 nM (active)

***
Which Potency value belongs to O=C(COc1cccnc1[N+](=O)[O-])c1c[nH]c2ccccc12 ?
5160 nM (active)

###

Test: qHTS of small molecules that selectively kill Giardia lamblia: Hit Validation.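 Note: viability measured as ATP content by luminescence so killing lowers signal; trophozoites exposed to compounds for 48 h anaerobically at 37 °C; nearly all actives have a fitted effect of over 65% in size.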
Experimental Context: Giardia lamblia trophozoite viability, dose-response; series mostly up to 38.3 µM
Hit rate of the full screen: of about 1,300 compounds, about 1,000 (77%) were called active. Roughly 7% stayed inconclusive and do not appear here. Calls come from the whole dose curve; as a rule, active = well fitted inhibition curve with a large enough effect; inconclusive = small, poorly fitted or top-dose-only effect; inactive = no such curve, though single readings can be large or run the other way. So high a share suggests a set chosen from earlier hits. Some of the results follow.
Reply using exactly one outcome from True (active), False (inactive)

Solved entries (count: 5):
So what was the verdict on CSCCC(NS(=O)(=O)c1ccc2c(c1)OCCO2)C(=O)N(C)Cc1ccccc1F (stereo unspecified) in this test?
False

So what was the verdict on Cc1c(Nc2nc3ccccc3n3cnnc23)cccc1[N+](=O)[O-] in this test?
True

So what was the verdict on N#C/C(=C/c1ccc(O)c([N+](=O)[O-])c1)C(=O)Nc1ccccc1 in this test?
True

So what was the verdict on N#C/C(=C\c1ccc(O)c([N+](=O)[O-])c1)C(=O)NCc1ccccc1 in this test?
True

So what was the verdict on Cc1cccc(-c2nnc(SCc3cc(=O)[nH]c4ccccc34)n2C)c1 in this test?
False

Here is the next item to consider.
So what was the verdict on Cc1[nH]c2ccccc2c1C(=O)C(C)OC(=O)c1ccc([N+](=O)[O-])o1 (stereo unspecified) in this test?
True
